Item-by-item account of TGI
System: KM20L2 colon
Experiment: NCI tumour cell line growth inhibition, 48 h

{"columns": ["Compound", "TGI"],
 "data": [
  ["CC(=O)OCCOCNC(=S)N/N=C/c1ccc([N+](=O)[O-])o1", "> 100 µM"],
  ["O=S1C(=c2ccc(=C3Sc4ccccc4S3)cc2)Sc2ccccc21 (centres undefined)", "31.9 µM"],
  ["O=c1c2cccnc2ncn1CCN1CCCCC1", "> 100 µM"],
  ["O=C(/C=C/c1c(O)ccc2ccccc12)c1ccc([N+](=O)[O-])cc1", "> 100 µM"],
  ["CC(=O)[O-].CC(=O)[O-].O=C(N/N=C/c1cc(Cl)cc(Cl)c1O)c1ccncc1.[Cu+2]", "> 100 µM"],
  ["COc1cc(C2C(Cl)C(=O)N2n2cnc3ccccc3c2=O)ccc1O (centres undefined)", "> 100 µM"],
  ["COc1c(CC(C)=O)ccc2c1C(=O)c1ccc(C=O)c(OC(C)=O)c1C2=O", "37.8 µM"],
  ["O=C(NC1C=CCC2C(=O)N(c3ccccc3)C(=O)C12)OCc1ccccc1 (centres undefined)", "> 100 µM"],
  ["O=c1[nH]c(-c2ccccc2)nc2cc(Cl)ccc12", "> 100 µM"],
  ["CCOC(=O)C1=C(C)N(NC(=O)Nc2ccccc2)C2(N)N(NC(=O)Nc3ccccc3)C(C)=C(C(=O)OCC)C12C(=O)OCC (centres undefined)", "> 100 µM"],
  ["COc1cc2c(cc1O)[C@H](C)C(c1ccc(OC)c(OC)c1)O2 (some centres undefined)", "38.2 µM"],
  ["O=C(O)CSc1n[nH]c(-c2ccccc2O)n1", "> 100 µM"],
  ["CCOc1ccc(NC2=CC(=O)C(=O)c3ccccc32)cc1", "36.7 µM"],
  ["O=C(Nc1c(O)[nH]c(=S)[nH]c1=O)c1ccccc1", "> 100 µM"]
]}

----------
Tested on: A549 NSCLC
Assay: NCI tumour cell line growth inhibition, 48 h
Item-by-item account of TGI

{"columns": ["Compound", "Target", "TGI"],
 "data": [
  ["COc1cc2c(cc1O)[C@H](C)C(c1ccc(OC)c(OC)c1)O2 (some centres undefined)", "A549 NSCLC", "> 100 µM"],
  ["C[N+]12C=CC=C1C(N1CCCC1)c1scc(-c3ccc(Br)cc3)c12 (centres undefined)", "A549 NSCLC", "> 100 µM"],
  ["CC(C)(CN1CCCCC1)C(/C=C/c1ccc(Cl)cc1)=N\\NC(=O)N/N=C(/C=C/c1ccc(Cl)cc1)C(C)(C)CN1CCCCC1", "A549 NSCLC", "> 57 µM"],
  ["[O-][Cl+3]([O-])([O-])[O-].[O]=[Ru]=[O].c1ccc(-c2ccccn2)nc1.c1ccc(-c2ccccn2)nc1", "A549 NSCLC", "> 100 µM"],
  ["CCNC(=O)C#Cc1ccc2c(C(=Nc3ccc(CN(C)C)cc3)c3ccccc3)c(O)[nH]c2c1", "A549 NSCLC", "> 5.34 µM"],
  ["COc1ccc(C(C)NNC(=O)c2ccncc2)cc1OC (centres undefined)", "A549 NSCLC", "> 100 µM"],
  ["COC(=O)c1cccc(C)c1C1CN=NC12Cc1cc(C)cc(C)c1C2=O (centres undefined)", "A549 NSCLC", "> 100 µM"],
  ["O=c1[nH]c(=O)n(C2COC(CO)C2O)cc1F (centres undefined)", "A549 NSCLC", "> 100 µM"],
  ["CCOC(=O)c1cn2c(n1)sc1cc(F)ccc12", "A549 NSCLC", "> 100 µM"],
  ["COc1cc2c(cc1OC)-c1cc(OC)c(OC)cc1C(CN(C)C)C2 (centres undefined)", "A549 NSCLC", "> 10 µM"],
  ["O=C1/C(=C/c2ccco2)NC(=S)N1CN1CCCCC1", "A549 NSCLC", "> 100 µM"],
  ["Cc1ccc(S(=O)(=O)N2CCC2c2ccccc2)cc1 (centres undefined)", "A549 NSCLC", "> 100 µM"],
  ["N#Cc1cccc(-n2[nH]c(=O)ccc2=O)c1", "A549 NSCLC", "> 100 µM"],
  ["CCOC(=O)/C(C#N)=C/c1coc2cc(C)cc(C)c2c1=O", "A549 NSCLC", "> 100 µM"]
]}

----------
Item-by-item account of TGI
Test system: OVCAR-5 ovarian
Experiment: NCI tumour cell line growth inhibition, 48 h
Measured quantity: TGI

{"columns": ["Compound", "Measured quantity", "Observed"],
 "data": [
  ["c1ccc(Nc2ncc(-c3ccccc3)o2)cc1", "TGI", "> 25 µM"],
  ["O=C1c2sc(-c3ccc(Cl)cc3)cc2-n2cccc21", "TGI", "> 100 µM"],
  ["N#C/C(N)=C(\\C#N)NC=NCCO", "TGI", "> 100 µM"],
  ["N=c1oc2ccccc2cc1C(=O)NC12CC3CC(CC(C3)C1)C2", "TGI", "> 100 µM"],
  ["CN(C)C=Nc1nc(=O)n(C2CCC(CO)O2)cc1F (stereo unspecified)", "TGI", "> 100 µM"],
  ["CN1CCN(C(=O)COc2ccc(C34CC5CC(CC(C5)C3)C4)cc2)CC1", "TGI", "44.6 µM"],
  ["COc1cc(OCCN(C)C)c2[nH]c(C(=O)N3CC(CCl)c4ccc(N)cc43)cc2c1 (stereo unspecified)", "TGI", "5.63 µM"],
  ["O=[N+]([O-])c1ccc2nc(Nc3ccccc3)c(Nc3ccccc3)nc2c1", "TGI", "6.93 µM"],
  ["N#Cc1cccc(-n2[nH]c(=O)ccc2=O)c1", "TGI", "> 100 µM"],
  ["[O-][Cl+3]([O-])([O-])[O-].[O]=[Ru]=[O].c1ccc(-c2ccccn2)nc1.c1ccc(-c2ccccn2)nc1", "TGI", "> 100 µM"],
  ["CC(C)C(NC(=O)Oc1ccccc1)C(=O)NC1c2c(Br)sc(Br)c2C(=O)C1O (stereo unspecified)", "TGI", "15.4 µM"]
]}

----------
Test system: SK-OV-3 ovarian
Experiment: NCI tumour cell line growth inhibition, 48 h; in the data active means GI50 below about 0.43 µM; inactive means the rest
Classes used: active, inactive

{"columns": ["Molecule", "Group"],
 "data": [
  ["OC(c1cc(C(F)(F)F)nc2c(C(F)(F)F)cccc12)C1CCCCN1 (configuration not stated)", "inactive"],
  ["NC(=S)N/N=C\\c1nccc2c(C(F)(F)F)cccc12", "active"],
  ["NCCNCCNCCN", "inactive"],
  ["COc1cc(-c2nn(-c3cccc(NC(=O)c4ccccc4)c3)cc2-c2ccncc2)ccc1Cl", "inactive"],
  ["O=C1OCC2=C1C(c1cccc(Br)c1)c1cc3c(cc1N2CCO)OCCO3 (configuration not stated)", "active"],
  ["Cc1ccc(S(=O)(=O)N2C3C=CC(C3)[C@@H]2C(Cl)(Cl)Cl)cc1 (some centres not stated)", "inactive"],
  ["O=C(NC1CCCCC1)NS(=O)(=O)c1ccc(N2N=C3c4ccccc4CC3C2c2ccc(Cl)cc2)cc1 (configuration not stated)", "inactive"]
]}

----------
Item-by-item account of TGI
Test system: SN12C renal
Experiment: NCI tumour cell line growth inhibition, 48 h
Measured quantity: TGI (µM)

{"columns": ["Molecule", "Target", "Measured quantity", "Operator", "Observed"],
 "data": [
  ["COc1cccc(-c2cc(=O)c3cc(N4CCCCC4)ccc3[nH]2)c1", "SN12C renal", "TGI", ">", 100],
  ["COC(=O)c1cccc(C)c1C1CN=NC12Cc1cc(C)cc(C)c1C2=O (stereo not given)", "SN12C renal", "TGI", ">", 100],
  ["CCOC(=O)C(=[N+]=[N-])C(=O)CN1C(=O)c2ccccc2C1=O", "SN12C renal", "TGI", ">", 100],
  ["O=S1C(=c2ccc(=C3Sc4ccccc4S3)cc2)Sc2ccccc21 (stereo not given)", "SN12C renal", "TGI", "=", 29.3],
  ["CN(C)CC(O)c1ccc(/C=C/c2ccc(Cl)cc2)cc1 (stereo not given)", "SN12C renal", "TGI", "=", 22.9],
  ["NC(Cc1ccccc1)C(=O)NC(Cc1ccccc1)NC(=O)C(Cc1c[nH]c2ccccc12)C(=O)O (stereo not given)", "SN12C renal", "TGI", ">", 100],
  ["Fc1cc(-c2nnc3n2N=C(c2ccc(Cl)cc2)CS3)c(Cl)cc1Cl", "SN12C renal", "TGI", "=", 16.8],
  ["CC(C)C(NC(=O)Oc1ccccc1)C(=O)NC1c2c(Br)sc(Br)c2C(=O)C1O (stereo not given)", "SN12C renal", "TGI", "=", 10.8],
  ["C=C1C(=O)O[C@@H]2/C=C(C)/C=C\\[C@@H]3O[C@@]3(C)C[C@@H](O)C12 (stereo not given in full)", "SN12C renal", "TGI", "=", 30.4],
  ["CCOC(=O)CCC(NC(=O)C(N)Cc1ccc(N(CCCl)CCCl)cc1)C(=O)OCC (stereo not given)", "SN12C renal", "TGI", "=", 5.72]
]}

From: PubChem BioAssay (NCI)
